tested on: Potassium voltage-gated channel subfamily H member 2, brain isoform KCNH2 3.1 (human); assay: qHTS for Inhibitors of KCHN2 3.1: Mutant qHTS; details: U2OS KCNH2 3.1, thallium flux FluxOr; further: on the % scale 0 is the no-effect control and ±100 the full control effect
About 3,300 (0.97%) of roughly 340,000 compounds were called active.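 How the source made its calls: active means maximum activity change below -70%; inconclusive means maximum activity change from -70% to -50%; inactive means maximum activity change above -50%.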 This excerpt belongs to a sample that is enriched for actives.
Allowed answers: label 1 for active, label 0 for inactive

For orientation, consider the following solved cases.
- CCCS(=O)(=O)N1CCC(CCOc2ccccc2)(C(=O)OCC)CC1: label 0
- Cc1cc(-c2ccc(C)c(S(=O)(=O)NC(C)Cc3ccco3)c2)on1 (configuration not stated): label 0
- COCOCCn1cc(CN2CCS(=O)(=O)N(Cc3ccc(-c4cccc(N(C)C)c4)cc3)C(CC(C)C)C2=O)nn1 (configuration not stated): label 0
- Cc1ccc2c(c1)N(S(=O)(=O)c1cc(-c3cc(C)no3)ccc1C)CCO2: label 1
- COC(=O)c1c(NC(=O)c2ccccc2F)sc2c1C(C(=O)OC)CC2 (configuration not stated): label 0
- CCNC(=O)COc1cc(C)c(Br)c(C)c1: label 1

Query string: What did the test return for "O=C(Nc1cccc(NC(=O)c2ccccc2[N+](=O)[O-])c1)c1ccccc1Cl" ?
Result string: label 1

Query string: Okay, and "CCOC(=O)C1(CCOc2ccccc2)CCN(Cc2cc(OC)cc(OC)c2)CC1" ?
Result string: label 1

Query string: Follow-up entry: "Cc1ccc([C@H]2N[C@]3(CCCN(Cc4ccccc4)C3=O)[C@H]3C(=O)N(Cc4ccccc4)C(=O)[C@@H]23)cc1"
Result string: label 0

Query string: Next entry: "Cc1ccc(S(=O)(=O)NN=C2CC(C)(C)CC(=O)C2(C)C)cc1"
Result string: label 0

Query string: Subsequent entry: "N#Cc1cccc(NC(=O)CCC2CCCC2)c1"
Result string: label 0

Query string: Next entry: "O=C(O)C(=Cc1ccc([N+](=O)[O-])cc1)CCc1ccccc1"
Result string: label 0

Query string: Record: "N#Cc1cccc(Nc2c3c(nc4ccccc24)CCCC3)c1"
Result string: label 1

Query string: Now give it for "COc1ccc(N)cc1NC(=O)CN1CCOCC1" too.
Result string: label 0

Query string: Moving on to the next compound: "COc1ccc(/C=C2\SC(=S)N(CCC(=O)N3CCOCC3)C2=O)cc1OC"
Result string: label 0

Query string: Next: CC1=C(C(=O)N2CCOCC2)CC(CC(=O)NCCN2CCOCC2)C(=O)N1CCC1=CCCCC1 (configuration not stated)
Result string: label 0

Query string: Record: CCCCN1C(=O)C(CC(=O)NC(c2ccccc2)c2ccccc2)CC(C(=O)N2CCOCC2)=C1C (configuration not stated)
Result string: label 0
